Values compiled from patent US9688596B2.

# Tested on: 24-hydroxylase (CYP-24) promoter
# Test details: 24-hydroxylase transcription (luciferase reporter in rat osteosarcoma cells)
# Assay type: cell-based
# Recorded conditions: average ratio of the 1α,25-(OH)2D3 ED50 to the ED50 for the analogue; luciferase activity
# Description: The activity of the synthesized vitamins in inducing transcription of vitamin D target gene was examined using the 24-hydroxylase (CYP-24) promoter.
Experimental endpoint: 24OHase transcription ED50 Ratio

Consider the following illustrative entries.
{"columns": ["Molecule", "24OHase transcription ED50 Ratio"],
 "data": [
  ["C=C1/C(=C/C=C2\\CCC[C@]3(C)[C@@H]([C@H](C)CCCC(C)(C)O)CC[C@@H]23)C[C@@H](O)C(=C)[C@@H]1O", 1],
  ["C=C1/C(=C/C=C2\\CCC[C@]3(C)[C@@H]([C@@H](C)CCCC(C)(C)O)CC[C@@H]23)C[C@@H](O)C(=C)[C@@H]1O", 5]
]}

I: C=C1/C(=C\C=C2/CCC[C@]3(C)[C@@H]([C@@H](C)CCCC(C)(C)O)CC[C@@H]23)C[C@@H](O)C(=C)[C@@H]1O
II: C=C1[C@H](O)CC(=C/C=C2\CCC[C@]3(C)[C@@H](C(C)CCCC(C)(C)O)CC[C@@H]23)C[C@H]1O (stereo partly drawn)
For the two items I and II , which reports the higher 24OHase transcription ED50 Ratio value? Answer by quoting the chosen item's label.
II
(II: 29, I: 10)

----------
# Target: full-length recombinant rat vitamin D receptor (Rattus norvegicus)
# Test details: Competitive binding to the vitamin D receptor
# Recorded conditions: comparator (1 or 3)

{"columns": ["Mol", "VDR binding ability (in words)"],
 "data": [
  ["C=C1/C(=C/C=C2\\CCC[C@]3(C)[C@@H]([C@@H](C)CCCC(C)(C)O)CC[C@@H]23)C[C@@H](O)C(=C)[C@@H]1O", "almost identical"],
  ["C=C1/C(=C\\C=C2/CCC[C@]3(C)[C@@H]([C@@H](C)CCCC(C)(C)O)CC[C@@H]23)C[C@@H](O)C(=C)[C@@H]1O", "almost identical"]
]}

----------
# Tested on: 24-hydroxylase (CYP-24) promoter
# Test details: 24-hydroxylase transcription (luciferase reporter in rat osteosarcoma cells)
# Format: cell-based
# Recorded conditions: compared with 1α,25-(OH)2D3 (1)
Experimental endpoint: transcriptional potency (in words)

{"columns": ["Mol", "Endpoint result"],
 "data": [
  ["C=C1/C(=C\\C=C2/CCC[C@]3(C)[C@@H]([C@@H](C)CCCC(C)(C)O)CC[C@@H]23)C[C@@H](O)C(=C)[C@@H]1O", "most pronounced activity"],
  ["C=C1/C(=C/C=C2\\CCC[C@]3(C)[C@@H]([C@@H](C)CCCC(C)(C)O)CC[C@@H]23)C[C@@H](O)C(=C)[C@@H]1O", "most pronounced activity"]
]}

----------
# Target: full-length recombinant rat vitamin D receptor (Rattus norvegicus, UniProt P13053)
# Sequence (P13053 whole entry): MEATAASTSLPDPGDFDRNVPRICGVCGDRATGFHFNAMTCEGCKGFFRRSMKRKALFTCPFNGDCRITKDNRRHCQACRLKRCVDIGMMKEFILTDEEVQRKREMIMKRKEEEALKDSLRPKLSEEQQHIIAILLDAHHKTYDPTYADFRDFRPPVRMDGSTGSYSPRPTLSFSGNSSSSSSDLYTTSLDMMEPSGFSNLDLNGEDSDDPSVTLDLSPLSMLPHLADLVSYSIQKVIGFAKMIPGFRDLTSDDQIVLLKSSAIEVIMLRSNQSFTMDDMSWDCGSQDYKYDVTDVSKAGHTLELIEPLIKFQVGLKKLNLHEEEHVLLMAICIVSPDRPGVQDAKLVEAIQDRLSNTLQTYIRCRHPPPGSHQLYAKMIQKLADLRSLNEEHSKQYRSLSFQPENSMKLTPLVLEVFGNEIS
# Test details: Competitive binding to the vitamin D receptor
# Recorded conditions: average ratio of the 1α,25-(OH)2D3 Ki to the Ki for the analogue; radiolabeled 1α,25-(OH)2D3 at 1 nM, Kd 0.2 nM
Experimental endpoint: VDR Binding Ki Ratio

{"columns": ["Compound", "Target", "Experimental endpoint", "Endpoint result"],
 "data": [
  ["C=C1/C(=C/C=C2\\CCC[C@]3(C)[C@@H]([C@@H](C)CCCC(C)(C)O)CC[C@@H]23)C[C@@H](O)C(=C)[C@@H]1O", "full-length recombinant rat vitamin D receptor (Rattus norvegicus, UniProt P13053)", "VDR Binding Ki Ratio", 1.1],
  ["C=C1[C@H](O)CC(=C/C=C2\\CCC[C@]3(C)[C@@H]([C@H](C)CCCC(C)(C)O)CC[C@@H]23)C[C@H]1O [Compound 2, reference compound]", "full-length recombinant rat vitamin D receptor (Rattus norvegicus, UniProt P13053)", "VDR Binding Ki Ratio", 1],
  ["C=C1/C(=C\\C=C2/CCC[C@]3(C)[C@@H]([C@H](C)CCCC(C)(C)O)CC[C@@H]23)C[C@@H](O)C(=C)[C@@H]1O [Compound 8, 1α,25-dihydroxy-2-methylene-vitamin D3]", "full-length recombinant rat vitamin D receptor (Rattus norvegicus, UniProt P13053)", "VDR Binding Ki Ratio", 1.4]
]}

----------
# Target: full-length recombinant rat vitamin D receptor (Rattus norvegicus)
# Test details: Competitive binding to the vitamin D receptor
# Recorded conditions: average ratio of the 1α,25-(OH)2D3 Ki to the Ki for the analogue; radiolabeled 1α,25-(OH)2D3 at 1 nM, Kd 0.2 nM
Experimental endpoint: VDR Binding Ki Ratio

{"columns": ["Molecule", "VDR Binding Ki Ratio"],
 "data": [
  ["C=C1[C@H](O)CC(=C/C=C2\\CCC[C@]3(C)[C@@H](C(C)CCCC(C)(C)O)CC[C@@H]23)C[C@H]1O (stereo partly drawn)", 1]
]}

I: C=C1/C(=C\C=C2/CCC[C@]3(C)[C@@H]([C@@H](C)CCCC(C)(C)O)CC[C@@H]23)C[C@@H](O)C(=C)[C@@H]1O
II: C=C1/C(=C/C=C2\CCC[C@]3(C)[C@@H]([C@H](C)CCCC(C)(C)O)CC[C@@H]23)C[C@@H](O)C(=C)[C@@H]1O
Looking only at measured VDR Binding Ki Ratio, which entry is lower, I or II ? Refer to your chosen item by its label in the answer.
I
(I: 1.1, II: 2.5)
